Hey, just so you know, these numbers are from paper PMC9693575.

Assay: Solubility in water and phosphate buffers
Conditions: pH 5.4, aqueous buffer
I would appreciate it if you labelled entries rule met when solubility thermodynamic is 10 mg/mL or higher, otherwise rule not met.

Please check the record CSCC[C@H](N)C(=O)OC(C)C.O=C(O)c1ccccc1O [[L-MetOiPr][SA], L-methionine isopropyl ester salicylate] and state if its solubility thermodynamic is at or above 10 mg/mL.
rule met

Threshold query (solubility thermodynamic >= 10 mg/mL) on O=C(O)c1ccccc1O [SA, salicylic acid, reference compound]
rule not met

Answer whether solubility thermodynamic of CC(C)OC(=O)C(N)C(C)C.O=C(O)c1ccccc1O [[L-ValOiPr][SA]] is greater than or equal to 10 mg/mL.
rule met

API: above_or_equal(metric=solubility thermodynamic, cutoff=10 mg/mL) for item CC(C)OC(=O)[C@@H](N)[C@@H](C)O.O=C(O)c1ccccc1O [[L-ThrOiPr][SA], L-threonine isopropyl ester salicylate]
rule met

Is solubility thermodynamic for CC[C@H](C)[C@H](N)C(=O)OC(C)C.O=C(O)c1ccccc1O [[L-IleOiPr][SA], L-isoleucine isopropyl ester salicylate] at or above 10 mg/mL?
rule met

====

System: Escherichia coli
Assay: Disc diffusion antimicrobial susceptibility test, Escherichia coli
Assay type: cell-based
Settings: solution transferred to disc 400 mg cm^−3
Field: Inhibition diameter. Provide a value for each of the compounds that follow.
Return type: number; implicit unit mm.

Lab note: measured Inhibition diameter of CC(C(=O)O)c1cccc(C(=O)c2ccccc2)c1.CSCCC(N)C(=O)OC(C)C (mixture of isomers) [[L-MetOiPr][KETO]] was 8.9

// field: Inhibition diameter; key: CC(C(=O)O)c1cccc(C(=O)c2ccccc2)c1.CC(C)OC(=O)C(N)C(C)C (mixture of isomers) [[L-ValOiPr][KETO]] ; value = 7.0

Per the records, this compound ( COc1ccc2cc([C@H](C)C(=O)O)ccc2c1.CSCC[C@H](N)C(=O)OC(C)C [[L-MetOiPr][NAP], L-methionine isopropyl ester naproxenate] ) has Inhibition diameter equal to 7.1

The measured Inhibition diameter associated with CC(C)Cc1ccc(C(C)C(=O)O)cc1.CSCCC(N)C(=O)OC(C)C (mixture of isomers) [[L-MetOiPr][IBU]] reads 7.1

Entry CC(C)Cc1ccc(C(C)C(=O)O)cc1.CCC(C)C(N)C(=O)OC(C)C (mixture of isomers) [[L-IleOiPr][IBU]] ; Inhibition diameter = 6.4

The compound identified as CC(C)Cc1ccc(C(C)C(=O)O)cc1.CC(C)OC(=O)C(N)C(C)C (mixture of isomers) [[L-ValOiPr][IBU]] registered its Inhibition diameter at 6.3

====

Experiment: Thermogravimetric analysis (thermal stability)
Conditions: DTG, air atmosphere, 10 °C min−1
measuredParameter: TDTGmax, maximum decomposition temperature (°C)
Express the result in °C but write the number alone.

Item: CC[C@H](C)[C@H](N)C(=O)OC(C)C.COc1ccc2cc([C@H](C)C(=O)O)ccc2c1 [[L-IleOiPr][NAP], L-isoleucine isopropyl ester naproxenate] | TDTGmax, maximum decomposition temperature: 287.4

Lookup result for COc1ccc2cc([C@H](C)C(=O)O)ccc2c1 [NAP, S-(+)-naproxen, reference compound] ; measured TDTGmax, maximum decomposition temperature: 284.0

Looking up CC(C)OC(=O)[C@@H](N)[C@@H](C)O.COc1ccc2cc([C@H](C)C(=O)O)ccc2c1 [[L-ThrOiPr][NAP], L-threonine isopropyl ester naproxenate] , I found its TDTGmax, maximum decomposition temperature recorded as 295.3

Short answer for CC(C)OC(=O)[C@@H](N)[C@@H](C)O.O=C(O)c1ccccc1O [[L-ThrOiPr][SA], L-threonine isopropyl ester salicylate] : TDTGmax, maximum decomposition temperature was 191.4

get_value(item= O=C(O)c1ccccc1O [SA, salicylic acid, reference compound] , readout=TDTGmax, maximum decomposition temperature) returns 198.8

Entry CC(C)Cc1ccc(C(C)C(=O)O)cc1 (racemic) [IBU, (R,S)-ibuprofen, reference compound] — recorded TDTGmax, maximum decomposition temperature = 218.8
